target: T1, human ErbB3-Fc (R&D Systems) (human, UniProt P21860 20-643); assay: ELISA on ErbB3-Fc, soluble monovalent Sab (Example 42)
T1 construct: Bought protein; also called wild-type ErbB3-Fc fusion; immobilized ErbB3; not shown: Fc part of the bought fusion protein; not described
Could you please report measured EC50 for the items listed next?
Answer in nM, number only, no unit symbol.

Lab book: EC50 of 3000-D07 (other, copies: 1 + 1) VH: EVQLLESGGGLVQPGGSLRLSCAASGFTFSSYWMHWVRQAPGKGLEWVSLISASGSIKYYADSVKGRFTISRDNSKNTLYLQMNSLRAEDTAVYYCAKDNEKNLYTWLDYWGQGTLVTVSS light: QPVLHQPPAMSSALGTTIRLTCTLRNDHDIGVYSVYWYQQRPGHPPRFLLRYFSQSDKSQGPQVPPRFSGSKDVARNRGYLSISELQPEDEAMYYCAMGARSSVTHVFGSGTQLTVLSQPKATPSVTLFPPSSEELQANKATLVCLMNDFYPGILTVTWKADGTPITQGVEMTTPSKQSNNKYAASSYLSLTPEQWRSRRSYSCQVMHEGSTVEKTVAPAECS noted as 0.152

Lab book: EC50 of 3000-C08 (other, copies: 1 + 1) VH: EVQLLESGGGLVQPGGSLRLSCAASGFTFSSYWMHWVRQAPGKGLEWVAVISNNGRYKYYADSVKGRFTISRDNSKNTLYLQMNSLRAEDTAVYYCAKDNEKNLYTWLDYWGQGTLVTVSS surrogate light: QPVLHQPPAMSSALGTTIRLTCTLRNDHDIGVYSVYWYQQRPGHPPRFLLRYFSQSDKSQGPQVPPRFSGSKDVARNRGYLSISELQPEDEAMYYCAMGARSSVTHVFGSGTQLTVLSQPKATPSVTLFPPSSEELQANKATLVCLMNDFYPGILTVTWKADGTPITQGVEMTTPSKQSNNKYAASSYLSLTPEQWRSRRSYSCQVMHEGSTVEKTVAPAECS noted as 0.182

Lab book: EC50 of 3000-A08 (other) VH: EVQLLESGGGLVQPGGSLRLSCAASGFTFSSYWMNWVRQAPGKGLEWVALISNGGGIKYYADSVKGRFTISRDNSKNTLYLQMNSLRAEDTAVYYCAKDNEKNLYTWLDYWGQGTLVTVSS light: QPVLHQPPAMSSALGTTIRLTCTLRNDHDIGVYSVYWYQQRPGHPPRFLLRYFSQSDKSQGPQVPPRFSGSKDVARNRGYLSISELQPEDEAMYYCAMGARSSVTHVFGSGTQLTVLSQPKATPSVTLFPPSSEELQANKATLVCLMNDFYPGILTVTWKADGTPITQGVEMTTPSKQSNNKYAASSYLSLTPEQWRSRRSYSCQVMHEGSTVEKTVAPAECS noted as 0.072

Lab book: EC50 of 3000-A11 (other, copies: 1 + 1) VH: EVQLLESGGGLVQPGGSLRLSCAASGFTFSSYWMHWVRQAPGKGLEWVALISWGGGTKYYADSVKGRFTISRDNSKNTLYLQMNSLRAEDTAVYYCAKDNEKNLYTWLDYWGQGTLVTVSS light: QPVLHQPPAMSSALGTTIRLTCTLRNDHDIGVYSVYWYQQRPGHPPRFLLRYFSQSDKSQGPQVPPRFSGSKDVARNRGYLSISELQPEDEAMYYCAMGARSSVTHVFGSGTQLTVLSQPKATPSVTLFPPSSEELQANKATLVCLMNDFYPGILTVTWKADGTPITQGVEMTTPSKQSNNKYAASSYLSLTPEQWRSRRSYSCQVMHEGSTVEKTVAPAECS noted as 0.139

Lab book: EC50 of 3000-F09 (other) VH: EVQLLESGGGLVQPGGSLRLSCAASGFTFSSYWMHWVRQAPGKGLEWVALISSSGGITYYADSVKGRFTISRDNSKNTLYLQMNSLRAEDTAVYYCAKDNEKNLYTWLDYWGQGTLVTVSS surrogate light: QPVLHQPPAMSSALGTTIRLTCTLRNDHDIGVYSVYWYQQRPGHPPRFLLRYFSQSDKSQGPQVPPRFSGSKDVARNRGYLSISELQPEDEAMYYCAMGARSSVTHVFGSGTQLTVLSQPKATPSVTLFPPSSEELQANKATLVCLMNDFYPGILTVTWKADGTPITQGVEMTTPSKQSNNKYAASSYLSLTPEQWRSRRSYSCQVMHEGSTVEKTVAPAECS noted as 0.118

Lab book: EC50 of 3000-C03 (other, copies: 1 + 1) VH: EVQLLESGGGLVQPGGSLRLSCAASGFTFSSYWMHWVRQAPGKGLEWVALISNNGTYKYYADSVKGRFTISRDNSKNTLYLQMNSLRAEDTAVYYCAKDNEKNLYTWLDYWGQGTLVTVSS light: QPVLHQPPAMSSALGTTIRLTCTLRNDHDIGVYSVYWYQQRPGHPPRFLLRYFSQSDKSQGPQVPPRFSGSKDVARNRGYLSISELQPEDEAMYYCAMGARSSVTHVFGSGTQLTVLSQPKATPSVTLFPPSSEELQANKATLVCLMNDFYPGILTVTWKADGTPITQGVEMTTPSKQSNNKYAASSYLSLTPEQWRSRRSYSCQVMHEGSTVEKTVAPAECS noted as 0.164

Lab book: EC50 of 3000-B02 (other) VH: EVQLLESGGGLVQPGGSLRLSCAASGFTFSSYWMHWVRQAPGKGLEWVAVISSGGNYIYYADSVKGRFTISRDNSKNTLYLQMNSLRAEDTAVYYCAKDNEKNLYTWLDYWGQGTLVTVSS surrogate light: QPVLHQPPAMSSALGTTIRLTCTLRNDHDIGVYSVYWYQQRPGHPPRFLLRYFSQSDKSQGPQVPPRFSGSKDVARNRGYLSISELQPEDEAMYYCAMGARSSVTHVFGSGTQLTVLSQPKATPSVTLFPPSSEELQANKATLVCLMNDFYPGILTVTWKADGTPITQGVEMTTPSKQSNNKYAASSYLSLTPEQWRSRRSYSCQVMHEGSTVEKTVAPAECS noted as 0.115
